Values from the Immune Epitope Database (IEDB)

- TESTED_TARGET: HLA-B*51:01
- TEST_DETAILS: IEDB peptide-MHC binding, purified MHC/competitive/fluorescence; filed as Kd, often an IC50 or EC50 that approximates it; bounds were set here for any values at or beyond the usual limits of such assays
- EXPERIMENTAL_SETUP: source organism: Zaire ebolavirus
pKd: −log10 of the molar value.
QUANTITY_NAME: pKd

Reference set (2 entries):
[
  {
    "SEQUENCE_CONTENT": "DRLASTVIY",
    "TESTED_TARGET": "HLA-B*51:01",
    "RESULT": "≤ 4.70"
  },
  {
    "SEQUENCE_CONTENT": "GIVSSMHYK",
    "TESTED_TARGET": "HLA-B*51:01",
    "RESULT": "≤ 4.70"
  }
]

Please turn your attention to the following entry.
Need pKd of AENCYNLEI , thanks.
≤ 4.70

###

- TESTED_TARGET: HLA-A*02:02
- TEST_DETAILS: IEDB peptide-MHC binding, purified MHC/competitive/radioactivity; filed as Kd, often an IC50 or EC50 that approximates it; bounds were set here for any values at or beyond the usual limits of such assays
- EXPERIMENTAL_SETUP: source organism: Lassa virus Josiah
The following sequences are listed with their measured pKd values.
Note on units: pKd is unitless, being -log10 of a concentration expressed in mol/L.

[
  {
    "SEQUENCE_CONTENT": "LNQAVNNLV",
    "TESTED_TARGET": "HLA-A*02:02",
    "QUANTITY_NAME": "pKd",
    "RECORDED_NUMBER": 6.29
  }
]

Need pKd of LMSIISTFHL , thanks.
7.00

###

- TESTED_TARGET: HLA-B*15:17
- TEST_DETAILS: IEDB peptide-MHC binding, purified MHC/direct/fluorescence; filed as Kd, often an IC50 or EC50 that approximates it; bounds were set here for any values at or beyond the usual limits of such assays
- EXPERIMENTAL_SETUP: source organism: Bacillus anthracis
QUANTITY_NAME: Kd

Need Kd of YFENSDLNL , thanks.
≥ 20 µM

###

- TESTED_TARGET: HLA-A*30:01
- TEST_DETAILS: IEDB peptide-MHC binding, purified MHC/competitive/fluorescence; filed as Kd, often an IC50 or EC50 that approximates it; bounds were set here for any values at or beyond the usual limits of such assays
- EXPERIMENTAL_SETUP: source organism: Vaccinia virus WR
QUANTITY_NAME: Kd

Observed Kd on HLA-A*30:01 for FVFEATKLY , please.
≥ 20 µM

###

- TESTED_TARGET: HLA-B*08:01
- TEST_DETAILS: IEDB peptide-MHC binding, purified MHC/competitive/fluorescence; filed as Kd, often an IC50 or EC50 that approximates it; bounds were set here for any values at or beyond the usual limits of such assays
- EXPERIMENTAL_SETUP: source organism: Influenza A virus H3N2
QUANTITY_NAME: Kd

Need Kd of FQKDAKVLF , thanks.
≥ 20 µM

###

- TESTED_TARGET: HLA-A*32:01
- TEST_DETAILS: IEDB peptide-MHC binding, purified MHC/competitive/radioactivity; filed as Kd, often an IC50 or EC50 that approximates it; bounds were set here for any values at or beyond the usual limits of such assays
- EXPERIMENTAL_SETUP: source organism: Vaccinia virus Copenhagen
QUANTITY_NAME: pKd
Note on units: pKd is unitless, being -log10 of a concentration expressed in mol/L.

Observed pKd on HLA-A*32:01 for VSFNRVVIF , please.
6.25
